target: SaroL-1 (Salpingoeca rosetta, UniProt F2UID9); construct: monomeric in solution; experiment: Inhibition of SaroL-1 (217 nM) induced hemolysis of rabbit erythrocytes after 1 h pre-incubation of lectin with sugar at RT, then 1-2 h at 37 °C, absorbance of supernatant at 540 nm.; conditions: n = 2
Sequence (F2UID9 1-329): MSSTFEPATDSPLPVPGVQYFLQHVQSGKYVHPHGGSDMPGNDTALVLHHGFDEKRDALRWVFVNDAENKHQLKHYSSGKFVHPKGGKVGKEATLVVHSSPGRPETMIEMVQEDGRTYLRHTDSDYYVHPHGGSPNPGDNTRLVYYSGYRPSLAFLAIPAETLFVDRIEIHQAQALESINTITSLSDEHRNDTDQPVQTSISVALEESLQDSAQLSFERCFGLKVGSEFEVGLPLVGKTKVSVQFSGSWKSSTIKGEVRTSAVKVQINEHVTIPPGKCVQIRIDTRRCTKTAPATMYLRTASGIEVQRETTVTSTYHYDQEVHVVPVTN
measurement_label: IC50 (mM)

{"compound": "CC(=O)N[C@H]1C(O)O[C@H](CO)[C@H](O)[C@@H]1O (some centres unmarked)", "readout_value": 4.9}
{"compound": "O=[N+]([O-])c1ccc(O[C@H]2O[C@H](CO)[C@H](O)[C@H](O)[C@H]2O)cc1 [PNPG, p-nitrophenyl-α-D-galactopyranoside]", "readout_value": 2.9}

* * *

# maps each entry to its inhibition
target: hemolytic activity of SaroL-1 on rabbit erythrocytes (Salpingoeca rosetta, UniProt F2UID9); assay: Inhibition of hemolytic activity (IHA) of SaroL-1 by carbohydrates; format: cell-based; settings: sugar 0.05 mM, SaroL-1 217 nM; read-out: Mean % inhibition of hemolysis
Sequence (F2UID9 1-329): as above
measurement_label: inhibition (%)

{"compound": "O=[N+]([O-])c1ccc(O[C@H]2O[C@H](CO)[C@H](O)[C@H](O)[C@H]2O)cc1 [PNPG, p-nitrophenyl-α-D-galactopyranoside]", "tgt": "hemolytic activity of SaroL-1 on rabbit erythrocytes (Salpingoeca rosetta, UniProt F2UID9)", "measurement_label": "inhibition", "readout_value": 3.85}
{"compound": "OC[C@H]1O[C@H](OCC2O[C@@H](O)[C@H](O)[C@@H](O)[C@@H]2O)[C@H](O)[C@@H](O)[C@H]1O (stereo partly drawn) [melibiose]", "tgt": "hemolytic activity of SaroL-1 on rabbit erythrocytes (Salpingoeca rosetta, UniProt F2UID9)", "measurement_label": "inhibition", "readout_value": 7.01}
{"compound": "CC(=O)N[C@H]1C(O)O[C@H](CO)[C@H](O)[C@@H]1O (stereo partly drawn) [GalNAc, N-acetylgalactosamine]", "tgt": "hemolytic activity of SaroL-1 on rabbit erythrocytes (Salpingoeca rosetta, UniProt F2UID9)", "measurement_label": "inhibition", "readout_value": 2.33}

* * *

Readings of inhibition for the listed molecules
target: UniProt:F2UID9; test: Inhibition of hemolytic activity (IHA) of SaroL-1 by carbohydrates; type: cell-based; conditions: sugar 0.1 mM, SaroL-1 217 nM; read-out: Mean % inhibition of hemolysis

{"molecule": "OC[C@H]1O[C@H](OCC2O[C@@H](O)[C@H](O)[C@@H](O)[C@@H]2O)[C@H](O)[C@@H](O)[C@H]1O (stereo partly drawn) [melibiose]", "units_of_measure": "%", "inhibition": 9.7}
{"molecule": "O=[N+]([O-])c1ccc(O[C@H]2O[C@H](CO)[C@H](O)[C@H](O)[C@H]2O)cc1 [PNPG, p-nitrophenyl-α-D-galactopyranoside]", "units_of_measure": "%", "inhibition": 3.39}
{"molecule": "CC(=O)N[C@H]1C(O)O[C@H](CO)[C@H](O)[C@@H]1O (stereo partly drawn) [GalNAc, N-acetylgalactosamine]", "units_of_measure": "%", "inhibition": 6.61}

* * *

molecular target: hemolytic activity of SaroL-1 on rabbit erythrocytes (Salpingoeca rosetta, UniProt F2UID9); experiment: Inhibition of hemolytic activity (IHA) of SaroL-1 by carbohydrates; format: cell-based; details: sugar 0.8 mM, SaroL-1 217 nM; read-out: Mean % inhibition of hemolysis
Parameter inhibition: see the listing below.
measurement_label: inhibition (%)

{"molecule": "CC(=O)N[C@H]1C(O)O[C@H](CO)[C@H](O)[C@@H]1O (stereo partly drawn)", "readout_value": 14.5}
{"molecule": "OC[C@H]1O[C@H](OCC2O[C@@H](O)[C@H](O)[C@@H](O)[C@@H]2O)[C@H](O)[C@@H](O)[C@H]1O (stereo partly drawn)", "readout_value": 36.1}
{"molecule": "O=[N+]([O-])c1ccc(O[C@H]2O[C@H](CO)[C@H](O)[C@H](O)[C@H]2O)cc1 [PNPG, p-nitrophenyl-α-D-galactopyranoside]", "readout_value": 8.59}
